Recorded inhibition values for a group of compounds are listed next.
target: Low-density lipoprotein receptor (Homo sapiens); assay: Displacement of S-tagged Ac-DSGL[CMPRLRGC]cDPR-NH2 from human DsRed2-fused LDLR expressed in CHO cells at 10 uM after 1 hr by FRET assay; assay type: cell-based
Where a SMILES comes first, the peptide text is derived from it. Bridges are numbered along the chain shown (N, C = ends).
Entry rule: numbers only, all in %.

>  <compound>
CSCC[C@@H]1NC(=O)[C@@H](NC(=O)[C@H](CC(C)C)NC(=O)CNC(=O)[C@H](CO)NC(=O)[C@H](CC(=O)O)NC(C)=O)CSSC[C@@H](C(=O)N[C@@H](CC(=O)O)C(=O)N2CCC[C@H]2C(=O)N[C@@H](C)C(N)=O)NC(=O)CNC(=O)[C@H](CCCNC(=N)N)NC(=O)[C@H](CC(C)C)NC(=O)[C@H](CCCNC(=N)N)NC(=O)[C@@H]2CCCN2C1=O (Ac-DSGLCMPRLRGCDPA-NH2; disulfide 5-12)

>  <studyTarget>
Low-density lipoprotein receptor (Homo sapiens)

>  <inhibition, %>
55

$$$$

Task: Using the record for CC(=O)N[C@@H](CC(=O)O)C(=O)N[C@@H](CO)C(=O)NCC(=O)N[C@@H](CC(C)C)C(=O)N[C@H]1CSSC[C@@H](C(=O)N[C@@H](CC(=O)O)C(=O)N2CCC[C@H]2C(=O)N[C@@H](CCCNC(=N)N)C(N)=O)NC(=O)CNC(=O)[C@H](CCCNC(=N)N)NC(=O)[C@H](CC(C)C)NC(=O)[C@H](CCCNC(=N)N)NC(=O)[C@@H]2CCCN2C(=O)[C@H](C)NC1=O (Ac-DSGLCAPRLRGCDPR-NH2; disulfide 5-12) , report its inhibition.
Output: 0

Task: Using the record for CSCC[C@@H]1NC(=O)[C@@H](NC(=O)[C@H](CC(C)C)NC(=O)CNC(=O)[C@H](CO)NC(=O)[C@H](CC(=O)O)NC(C)=O)CSSC[C@@H](C(=O)N[C@@H](CC(=O)O)C(=O)N[C@@H](C)C(=O)N[C@@H](CCCNC(=N)N)C(N)=O)NC(=O)CNC(=O)[C@H](CCCNC(=N)N)NC(=O)[C@H](CC(C)C)NC(=O)[C@H](CCCNC(=N)N)NC(=O)[C@@H]2CCCN2C1=O (Ac-DSGLCMPRLRGCDAR-NH2; disulfide 5-12) , report its inhibition.
Output: 52

Task: Using the record for CSCC[C@@H]1NC(=O)[C@@H](NC(=O)[C@H](CC(C)C)NC(=O)CNC(=O)[C@H](C)NC(=O)[C@H](CC(=O)O)NC(C)=O)CSSC[C@@H](C(=O)N[C@@H](CC(=O)O)C(=O)N2CCC[C@H]2C(=O)N[C@@H](CCCNC(=N)N)C(N)=O)NC(=O)CNC(=O)[C@H](CCCNC(=N)N)NC(=O)[C@H](CC(C)C)NC(=O)[C@H](CCCNC(=N)N)NC(=O)[C@@H]2CCCN2C1=O (Ac-DAGLCMPRLRGCDPR-NH2; disulfide 5-12) , report its inhibition.
Output: 20

Task: Using the record for CSCC[C@@H]1NC(=O)[C@@H](NC(=O)[C@H](CC(C)C)NC(=O)[C@H](C)NC(=O)[C@H](CO)NC(=O)[C@H](CC(=O)O)NC(C)=O)CSSC[C@@H](C(=O)N[C@@H](CC(=O)O)C(=O)N2CCC[C@H]2C(=O)N[C@@H](CCCNC(=N)N)C(N)=O)NC(=O)CNC(=O)[C@H](CCCNC(=N)N)NC(=O)[C@H](CC(C)C)NC(=O)[C@H](CCCNC(=N)N)NC(=O)[C@@H]2CCCN2C1=O (Ac-DSALCMPRLRGCDPR-NH2; disulfide 5-12) , report its inhibition.
Output: 58

Task: Using the record for CSCC[C@@H]1NC(=O)[C@@H](NC(C)=O)CSC[C@@H](C(N)=O)NC(=O)[C@H](CCCNC(=N)N)NC(=O)[C@@H]2CCCN2C1=O , report its inhibition.
Output: 0
